Biological target: Urokinase from human urine (Homo sapiens)
Test: Enzymatic assay, urokinase
Where a SMILES comes first, the peptide text is derived from it.
Would you please tag the item T when its Urokinase at 100 μM % is 5% or above, and F when it is below?

compound	classification
CC[C@H](C)[C@@H]1NC(=O)[C@@H]2CCCN2C(=O)[C@@H]2CCCN2C(=O)[C@H](CC(=O)O)NC(=O)[C@H](CO)NC(=O)[C@H](CCCCN)NC(=O)[C@H]([C@@H](C)O)NC(=O)[C@@H]2CSSC[C@H](NC1=O)C(=O)N[C@@H](Cc1ccc(O)cc1)C(=O)N1CCC[C@@H]1C(=O)N1CCC[C@H]1C(=O)N[C@@H](Cc1ccc(O)cc1)C(=O)N2 [Ex. 26] (HELM PEPTIDE1{Y.C.T.K.S.D.P.P.I.C.Y.[dP].P}$PEPTIDE1,PEPTIDE1,2:R3-10:R3|PEPTIDE1,PEPTIDE1,1:R1-13:R2$$$V2.0)	F
CC[C@H](C)[C@@H]1NC(=O)[C@H](CO)NC(=O)[C@H](C)NC(=O)[C@H]([C@@H](C)O)NC(=O)[C@@H]2CSSC[C@H](NC(=O)[C@H](CCC(N)=O)NC(=O)[C@@H]3CCCN3C(=O)[C@@H]3CCCN3C1=O)C(=O)N[C@@H](Cc1ccccc1)C(=O)N1CCC[C@@H]1C(=O)N1CCC[C@H]1C(=O)N[C@@H](CCc1ccccc1)C(=O)N2 [Ex. 146] (HELM PEPTIDE1{[O=C([C@H](CCc1ccccc1)N[*:1])[*:2]].C.T.A.S.I.P.P.Q.C.F.[dP].P}$PEPTIDE1,PEPTIDE1,2:R3-10:R3|PEPTIDE1,PEPTIDE1,1:R1-13:R2$$$V2.0)	F
CCCC[C@@H]1NC(=O)[C@@H]2CCCN2C(=O)[C@H]2CCCN2C(=O)[C@H](Cc2ccc(O)cc2)NC(=O)[C@@H]2CSSC[C@H](NC1=O)C(=O)N[C@@H]([C@@H](C)O)C(=O)N[C@@H](CCCCN)C(=O)N[C@@H](CO)C(=O)N[C@@H](CC(=O)O)C(=O)N1CCC[C@H]1C(=O)N1CCC[C@H]1C(=O)N[C@@H]([C@@H](C)CC)C(=O)N2 [Ex. 44] (HELM PEPTIDE1{[Nle].C.T.K.S.D.P.P.I.C.Y.[dP].P}$PEPTIDE1,PEPTIDE1,2:R3-10:R3|PEPTIDE1,PEPTIDE1,1:R1-13:R2$$$V2.0)	T
CC[C@H](C)[C@@H]1NC(=O)[C@@H]2CCCN2C(=O)[C@@H]2CCCN2C(=O)[C@H](CC(=O)O)NC(=O)[C@H](CO)NC(=O)[C@H](CCCCN)NC(=O)[C@H]([C@@H](C)O)NC(=O)[C@@H]2CSSC[C@H](NC1=O)C(=O)N[C@@H](CO)C(=O)N1CCC[C@@H]1C(=O)N1CCC[C@H]1C(=O)N[C@@H](Cc1ccccc1)C(=O)N2 [Ex. 4] (HELM PEPTIDE1{F.C.T.K.S.D.P.P.I.C.S.[dP].P}$PEPTIDE1,PEPTIDE1,2:R3-10:R3|PEPTIDE1,PEPTIDE1,1:R1-13:R2$$$V2.0)	T
CC[C@H](C)[C@@H]1NC(=O)[C@@H]2CCCN2C(=O)[C@@H]2CCCN2C(=O)[C@H](CC(=O)O)NC(=O)[C@H](CO)NC(=O)[C@H](CCCCN)NC(=O)[C@H]([C@@H](C)O)NC(=O)[C@@H]2CSSC[C@H](NC1=O)C(=O)N[C@@H](CO)C(=O)N1CCC[C@@H]1C(=O)N[C@@H](CCC(=O)O)C(=O)N[C@@H](Cc1ccccc1)C(=O)N2 [Ex. 64] (HELM PEPTIDE1{F.C.T.K.S.D.P.P.I.C.S.[dP].E}$PEPTIDE1,PEPTIDE1,2:R3-10:R3|PEPTIDE1,PEPTIDE1,1:R1-13:R2$$$V2.0)	F

Task item: Check the entry CCCC[C@@H]1NC(=O)[C@@H]2CCCN2C(=O)[C@H]2CCCN2C(=O)[C@H](Cc2ccc(O)cc2)NC(=O)[C@@H]2CSSC[C@H](NC1=O)C(=O)N[C@@H]([C@@H](C)O)C(=O)N[C@@H](C)C(=O)N[C@@H](CO)C(=O)N[C@@H]([C@@H](C)CC)C(=O)N1CCC[C@H]1C(=O)N1CC(NC(=O)c3ccccc3)C[C@H]1C(=O)N[C@@H](CCC(N)=O)C(=O)N2 (single isomer, unassigned) [Ex. 88] : does Urokinase at 100 μM % equal or exceed 5%?
Reply: T

Task item: Check the entry CCCC[C@@H]1NC(=O)[C@H]([C@@H](C)O)NC(=O)[C@@H]2CSSC[C@H](NC(=O)[C@H]([C@@H](C)CC)NC(=O)[C@@H]3CCCN3C(=O)[C@@H]3CCCN3C(=O)[C@H](CC(=O)O)NC(=O)[C@H](CO)NC1=O)C(=O)N[C@@H](CCCNC(=N)N)C(=O)N1CCC[C@@H]1C(=O)N1CCC[C@H]1C(=O)N[C@@H]([C@@H](C)CC)C(=O)N2 [Ex. 59] (HELM PEPTIDE1{I.C.T.[Nle].S.D.P.P.I.C.R.[dP].P}$PEPTIDE1,PEPTIDE1,2:R3-10:R3|PEPTIDE1,PEPTIDE1,1:R1-13:R2$$$V2.0) : does Urokinase at 100 μM % equal or exceed 5%?
Reply: T

Task item: Check the entry CC[C@H](C)[C@@H]1NC(=O)[C@@H]2CCCN2C(=O)[C@@H]2CCCN2C(=O)[C@H](CC(=O)O)NC(=O)[C@H](CO)NC(=O)[C@H](CCCCN)NC(=O)[C@H]([C@@H](C)O)NC(=O)[C@@H]2CSSC[C@H](NC1=O)C(=O)N[C@@H](Cc1ccccc1)C(=O)N1CCC[C@@H]1C(=O)N1CCC[C@H]1C(=O)N[C@@H](CCCNC(=N)N)C(=O)N2 [Ex. 75] (HELM PEPTIDE1{R.C.T.K.S.D.P.P.I.C.F.[dP].P}$PEPTIDE1,PEPTIDE1,2:R3-10:R3|PEPTIDE1,PEPTIDE1,1:R1-13:R2$$$V2.0) : does Urokinase at 100 μM % equal or exceed 5%?
Reply: T
